- Method Description: Quantitative highthroughput screen to assess conditional lethalithy of P12 Ichikawa cells grown in RPMI1640 with dialyzed fetal bovine serum (RPMI+ds) (AID 1963880); also: nearly all actives have a fitted effect of over 35% in size
- Test Settings: ATP luminescence, 48 h; P12-Ichikawa viability; series mostly up to 45.8 µM
Results filed as inconclusive are left out. Activity calls are given as the source filed them. Calls follow the shape of the dose curve; as a rule, active = well fitted cell-killing curve with a large enough effect; inconclusive = small, poorly fitted or top-dose-only effect; inactive = flat fitted curve, though single readings scatter.
Classes used: True = active, False = inactive

Mol Smiles	Assigned Label
CC(C=CC1=C(C)CCCC1(C)C)=CC=CC(C)=CC(=O)O	False
NC(=O)c1ncn([C@@H]2O[C@H](CO)[C@@H](O)[C@@H]2O)c1N	False
C[C@H](NC(=O)Cc1cc(F)cc(F)c1)C(=O)N[C@@H]1C(=O)N(C)c2ccccc2-c2ccccc21	True
COc1cc([C@@H]2c3cc4c(cc3[C@@H](O[C@@H]3O[C@@H]5CO[C@@H](C)O[C@@H]5[C@H](O)[C@@H]3O)[C@H]3COC(=O)[C@H]23)OCO4)cc(OC)c1O	True
Cc1c(C)n(Cc2ccc(-c3ccccc3C(=O)O)cc2)c2ccc(C(=O)N[C@@H](C)c3ccc([N+](=O)[O-])cc3)cc12	True
C=C1C[C@@]2(O)O[C@@]3(C[C@H]2C(C)C)[C@H](C)CC[C@H]13	False
OCCn1cc(-c2ccc3c(c2)CCC3=NO)c(-c2ccncc2)n1	False
Cc1cn2cc(C(=O)N(C)CCO)cc(N[C@@H]3CCOc4cccc(C)c43)c2n1	False
